Test: qHTS assay to identify small molecule agonists of the hypoxia (HIF-1) signaling pathway (AID 1224846)
Conditions: HRE-bla ME-180 cells, beta-lactamase ratio, 17 h; series mostly up to 76.8 µM
Records with an inconclusive call do not appear. The source made the active and inactive calls. Calls follow the shape of the dose curve; as a rule, active = well fitted activation curve with a large enough effect in the signal ratio in the repeat runs (not every such curve was filed as active); inconclusive = weak or mixed curves; inactive = flat fitted curve, though single readings scatter; the % refers to the signal ratio.
Readout type: outcome

>>> df
                                    compound  measured_value
 0  O=C(O)c1cc(Oc2ccc(C(F)(F)F)cc2Cl)ccc1[N+](=O)[O-]        inactive
 1                   Nc1ccc([As](=O)(O)O)cc1        inactive
 2                              Cc1ccc(N)cc1        inactive
 3                             COS(=O)(=O)OC        inactive
 4                                NNc1ccccc1        inactive
 5                    O=S(=O)(O)OOS(=O)(=O)O        inactive
 6       O=[N+]([O-])c1cc([As](=O)(O)O)ccc1O        inactive
 7     CNc1cnn(-c2cccc(C(F)(F)F)c2)c(=O)c1Cl        inactive
 8                       CC(=O)/C=C/c1ccccc1        inactive
 9                          N#Cc1cccc(C#N)c1        inactive
10            O=C(O)CCCc1ccc(N(CCCl)CCCl)cc1        inactive
11  CC12CC1(C)C(=O)N(c1cc(Cl)cc(Cl)c1)C2=O (configuration not stated)        inactive
12                         Nc1cc(Cl)cc(Cl)c1        inactive
13  O=P1(NCCCl)OCCCN1CCCl (configuration not stated)        inactive
14                          O=C(O)COc1ccccc1        inactive
15                                 Cl/C=C/Cl        inactive
16          CCOP(=S)(OCC)Oc1cc(C)nc(C(C)C)n1        inactive
17              O=[N+]([O-])c1ccc(Cl)c(Cl)c1        inactive
18            CNC(=O)O/N=C/C(C)(C)S(C)(=O)=O        inactive
19          COP(=S)(OC)SCN1C(=O)c2ccccc2C1=O        inactive
20                     C/C=C/c1ccc2c(c1)OCO2        inactive
21  Cc1cc(Cl)ccc1OC(C)C(=O)O (configuration not stated)        inactive
22                    CNC(=O)Oc1cccc2ccccc12        inactive
23  CCOC(=O)CC(SP(=O)(OC)OC)C(=O)OCC (configuration not stated)        inactive
24                                 ClCCOCCCl        inactive
25                          c1ccc2c(c1)CCCC2        inactive
26                                Cc1ccccc1N        inactive
27                      Nc1nc(N)nc(NC2CC2)n1        inactive
28                           O=C(O)Cc1ccccc1        inactive
29             COc1cc(-c2ccc(N)c(OC)c2)ccc1N        inactive
30                            CC[N+](=O)[O-]        inactive
31              Cc1cccc(C)c1NC(=O)CN1CCCC1=O        inactive
